Biological target: T1, Murine CXCR2 (Mus musculus, UniProt P35343)
T1 construct: expressed in transfected cells
T1 sequence (P35343 1-359): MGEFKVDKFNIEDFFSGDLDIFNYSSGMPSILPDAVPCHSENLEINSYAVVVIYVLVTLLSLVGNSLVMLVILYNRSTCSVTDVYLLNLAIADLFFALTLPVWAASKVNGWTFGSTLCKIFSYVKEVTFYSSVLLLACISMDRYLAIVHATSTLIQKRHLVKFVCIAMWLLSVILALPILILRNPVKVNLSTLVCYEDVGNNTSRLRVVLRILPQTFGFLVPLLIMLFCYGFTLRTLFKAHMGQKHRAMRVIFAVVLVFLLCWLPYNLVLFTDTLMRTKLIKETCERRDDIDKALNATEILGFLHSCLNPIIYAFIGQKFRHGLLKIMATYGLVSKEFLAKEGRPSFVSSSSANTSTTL
Assay: cELISA of hybridoma supernatants on cells transfected with murine CXCR2
Format: binding
Settings: hybridoma supernatant; fluorescence units relative to positive control (100%)
Outcome measure: Murine CXCR2 % Positive (%)
Numeric only. Scale: %

QUERY: Item BKO-1A1: VH SEQ ID NO: 1, VL SEQ ID NO: 2 (antibody, V domains shown, BKO_1A1_VH; BKO_1A1_VL) VH: QLQLQESGPGLVKPSETLSLTCTVSGGSIRTSSYYWGWIRQPPGKGLEYIGSIYYSGTTYYNPSLKSRVTMSVDTSKNQFSLKMSSVTAADSAVYYCARHGRVREVPPFDYWGQGTLVTVSS VL: SSELTQDPAVSVALGQTVRITCQGDSLRYYYASWYQQKPGQAPVLVIYDENSRPSGIPDRFSGSSSGNTASLSITGTQAEDEADYYCNSRDTSGNHWAFGGGTKLTVL has what recorded Murine CXCR2 % Positive?
RESULT: 6
